The measurements presented in this section are drawn from patent US20230078120A1.

Tested System: BCR-ABL1 kinase (Homo sapiens, UniProt P00519)
Sequence (P00519 27-1130): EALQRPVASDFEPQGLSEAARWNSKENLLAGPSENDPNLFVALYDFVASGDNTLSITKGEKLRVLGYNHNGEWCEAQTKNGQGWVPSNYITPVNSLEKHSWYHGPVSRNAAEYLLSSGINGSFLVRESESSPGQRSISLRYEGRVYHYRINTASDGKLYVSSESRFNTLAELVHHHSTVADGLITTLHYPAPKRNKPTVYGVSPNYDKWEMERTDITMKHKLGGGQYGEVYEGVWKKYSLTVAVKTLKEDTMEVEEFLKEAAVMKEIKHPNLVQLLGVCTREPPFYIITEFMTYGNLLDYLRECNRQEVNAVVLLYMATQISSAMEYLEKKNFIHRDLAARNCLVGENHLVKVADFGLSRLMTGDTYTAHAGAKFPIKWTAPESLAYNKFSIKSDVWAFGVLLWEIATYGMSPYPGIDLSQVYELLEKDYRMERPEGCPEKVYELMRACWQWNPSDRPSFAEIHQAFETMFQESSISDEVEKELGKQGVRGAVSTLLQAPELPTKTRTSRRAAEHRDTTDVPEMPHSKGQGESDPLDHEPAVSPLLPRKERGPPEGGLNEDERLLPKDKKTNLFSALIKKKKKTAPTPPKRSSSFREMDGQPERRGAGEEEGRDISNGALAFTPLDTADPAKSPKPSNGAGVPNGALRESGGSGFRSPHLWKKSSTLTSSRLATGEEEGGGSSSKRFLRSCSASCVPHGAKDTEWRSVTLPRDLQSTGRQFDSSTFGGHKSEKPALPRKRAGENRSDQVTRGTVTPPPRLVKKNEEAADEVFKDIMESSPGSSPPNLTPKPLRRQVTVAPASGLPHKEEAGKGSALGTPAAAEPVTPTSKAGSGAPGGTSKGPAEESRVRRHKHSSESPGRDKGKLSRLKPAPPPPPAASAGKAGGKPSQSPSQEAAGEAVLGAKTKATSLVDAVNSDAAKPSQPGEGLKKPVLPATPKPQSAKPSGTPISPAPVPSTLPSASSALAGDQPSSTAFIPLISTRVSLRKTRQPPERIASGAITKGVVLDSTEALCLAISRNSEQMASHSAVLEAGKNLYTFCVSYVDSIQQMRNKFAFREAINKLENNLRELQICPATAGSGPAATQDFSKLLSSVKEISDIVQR
Test: biochemical

Chem Smiles	IC50, pM
Cc1ccc(C(=O)Nc2ccc(CN3CCN(C)CC3)c(C(F)(F)F)c2)cc1C#Cc1cnc2[nH]ncc2c1	300

----------
Let's look at some compounds and their measured Max Inhibition (%).
System: SARS-CoV-2
Test: microbe, parasite or virus in culture
Format: cell-based
Experimental Parameters: Vero cells, MOI 0.0125, 24 hpi; at the Max Conc. of each compound (5, 50 or 150 uM)
Measured Quantity: Max Inhibition (%)

Compound	Result Value
CCC(CC)COC(=O)[C@H](C)N[P@](=O)(OC[C@H]1O[C@@](C#N)(c2ccc3c(N)ncnn23)[C@H](O)[C@@H]1O)Oc1ccccc1 [Remdesivir]	95.01
Cc1cccc(C)c1OCC(=O)N[C@@H](Cc1ccccc1)[C@@H](O)C[C@H](Cc1ccccc1)NC(=O)[C@H](C(C)C)N1CCCNC1=O [Lopinavir]	99.93
CN[C@@H](C)C(=O)N[C@H]1CN(S(=O)(=O)c2cccc(S(=O)(=O)N3CC[C@H]4CC[C@@H](C(=O)NC(c5ccccc5)c5ccccc5)N4C(=O)[C@@H](NC(=O)[C@H](C)NC)C3)c2)CC[C@H]2CC[C@@H](C(=O)NC(c3ccccc3)c3ccccc3)N2C1=O [Compound 2]	25.93
CCN(CC)CCCC(C)Nc1ccnc2cc(Cl)ccc12 (stereo not shown) [Chloroquine]	100.01
